B1: TSN (parent)
chain: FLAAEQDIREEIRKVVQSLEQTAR

Variants of: B1
Assay: protein stability index of a GFP-peptide fusion (GPS, HEK-293T) (PSI 1-6); higher = more stable;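 also: lentivirally expressed fusions sorted by FACS into six bins by GFP to DsRed ratio, PSI derived from sequencing read proportions per bin multiplied by bin number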
Conditions: c terminus: a fixed tail appended
PROPERTY MEASURED: protein stability index
Answer as a number with no unit attached.

> print(dat)
   mutation.label  test.value
1             L2G        3.19

Input line: Data request, read-out protein stability index, for "D7K"
Output line: 1.51

Input line: # protein stability index lookup, item "Q6K"
Output line: 1.78

Input line: What protein stability index value was documented for this variant, "R9Y" ?
Output line: 2.29

Input line: Would you mind telling me what protein stability index value was observed for "Q17E" ?
Output line: 1.77

Input line: Name the recorded protein stability index for "R24Y" .
Output line: 1.94

Input line: Reported protein stability index for "T22I" : what is it?
Output line: 2.61

Input line: Consider the variant "A23Y" and give its measured protein stability index.
Output line: 1.88

Input line: Give its protein stability index value. Item: "F1H"
Output line: 2.5

Input line: Which protein stability index value belongs to "A23E" ?
Output line: 2.68

Input line: Requested field: protein stability index. Item: "D7H"
Output line: 2.78

Input line: Recorded protein stability index of "E11K" , please.
Output line: 2.65
